Procedure Details: pFe3+ (negative logarithm of the concentration of the free Iron(III) in solution) of the compound.
Format: ADME
Property Measured: pFe3

Cc1c(O)c(=O)ccn1C [DEFERIPRONE] | 19.4
CCn1ccc(=O)c(O)c1CO | 21
CCn1c(C)cc(=O)c(O)c1CO | 20.4
CCn1ccc(=O)c(O)c1C(C)O (stereo unspecified) | 21.4
O=c1ccn(CCCO)c(CO)c1O | 20.7
CC(O)c1c(O)c(=O)ccn1CCCO (stereo unspecified) | 21.5
Cn1ccc(=O)c(O)c1CO | 20.9
CCc1c(O)c(=O)ccn1CC | 19.7
Cc1cc(=O)c(O)c(CO)n1C | 20.4
Cc1cc(=O)c(O)c(C(C)O)n1C (stereo unspecified) | 21.5
CCC(O)c1c(O)c(=O)cc(C)n1C (stereo unspecified) | 21
